Where do these numbers come from? They come from patent US20170237129A1.

# protocol_details: Cloud point determination
# Type: physicochemical
# cond: 0.7M quat in 2.5M zinc bromide water solution
Record form. Attribute: Solubility in ZnBr2 Cloud Point. Fill in for each entry.

Some compounds with known Solubility in ZnBr2 Cloud Point results, for comparison:
compound="CCCC[N+](C)(C)CCOC.[Br-] [Compound 1, Dimethylbutylether Quat Bromide]" value_observed="0.7M, 29 C."
compound=CC[N+](C)(CC)CCOC.[Br-] value_observed="0.7M, <-10.5 C."
compound="CC[N+]1(CC)CCCCC1.[Br-] [Compound 9, Diethyl Piperidinium Bromide]" value_observed="0.7M, 11.9 C."
compound=CC[N+](CC)(CC)CCOC.[Br-] value_observed="0.7M, <-10.5 C."
compound="CCC[N+]1(CC)CCCCC1 [Compound 10, EthyPropyl Piperidinium Bromide]" value_observed="0.7M, 45.8 C."

# next compound below
Notebook: CCC[N+](CC)(CC)CC.[Br-] [Compound 5, triethylpropylammonium bromide] , Solubility in ZnBr2 Cloud Point read as 0.7M, 41.2 C.
